Reference source for all entries: patent US11053204B2

System: corn (Zea mays)
Method Description: Test C preemergence, plant response rating
Assay type: in vivo
Condition Parameters: Preemergence; 16 g ai/ha; scale 0 to 100
Measured Endpoint: Plant response rating, Corn
// return just the number, without any unit appended

Task: # get_value(readout='Plant response rating, Corn', item= FC(F)(F)CCCc1c(Br)cccc1Oc1ncc(Cl)cn1 )
Result: 0

Task: # get_value(readout='Plant response rating, Corn', item= CCCC(=O)c1c(Oc2ncc(Cl)cn2)cccc1C(F)(F)F )
Result: 0

Task: Please look up its Plant response rating, Corn: CCCCC(=O)c1c(Br)cccc1Oc1ncc(Cl)cn1
Result: 0

Task: Would you kindly share the measured Plant response rating, Corn for O=C(CCCC(F)(F)F)c1c(Br)cccc1Oc1ncc(Cl)cn1 ?
Result: 0

Task: May I ask what Plant response rating, Corn has been recorded for FC(F)(F)CCCCc1c(Br)cccc1Oc1ncc(Cl)cn1 ?
Result: 0

Task: I would be grateful if you could share the reported Plant response rating, Corn for O=C(CCCC(F)(F)F)c1c(Cl)cccc1Oc1ncc(Cl)cn1 .
Result: 5

Task: Recorded Plant response rating, Corn for CCCCC(=O)c1c(Oc2ncc(Cl)cn2)cccc1C(F)(F)F , please?
Result: 5

====

Tested on: barnyardgrass (Echinochloa crus-galli)
Method Description: Test A preemergence, visual injury rating
Type: in vivo
Condition Parameters: 31 g ai/ha, 0 to 100 scale, 0 no effect, 100 complete control
Measured Endpoint: Plant response rating, Barnyardgrass

Task: Can you look up the measured Plant response rating, Barnyardgrass of CC(C)(C)OC(=O)c1c(F)cccc1Oc1ncc(Cl)cn1 for me?
Result: 0

Task: Any idea what Plant response rating, Barnyardgrass was measured for N#Cc1cccc(Oc2ncc(Cl)cn2)c1C(=O)CCCC(F)(F)F ?
Result: 0

Task: Could you share which Plant response rating, Barnyardgrass value was measured for Cc1cccc(Oc2ncc(Cl)cn2)c1C(=O)OCCC(F)(F)F ?
Result: 70

Task: Recorded Plant response rating, Barnyardgrass of O=C(OCCC(F)(F)F)c1c(OCC(F)(F)F)cccc1Oc1ncc(Cl)cn1 , please.
Result: 0

Task: Please report the recorded Plant response rating, Barnyardgrass for O=C(OCC(Cl)(Cl)Cl)c1c(Br)cccc1Oc1ncc(Cl)cn1 .
Result: 0

Task: Fill in: Plant response rating, Barnyardgrass of N#Cc1cccc(Oc2ncc(Cl)cn2)c1NCCCC(F)(F)F is ___
Result: 20

Task: # Plant response rating, Barnyardgrass lookup, item CCCCc1c(C#N)cccc1Oc1ncc(Cl)cn1
Result: 0

Task: Recorded Plant response rating, Barnyardgrass of CN(CCCC(F)(F)F)c1c(C#N)cccc1Oc1ncc(Cl)cn1 , please.
Result: 0

Task: Plant response rating, Barnyardgrass for FC(F)(F)CCCCCc1c(Cl)cccc1Oc1ncc(Cl)cn1 ?
Result: 10

====

Tested on: kochia (Kochia scoparia)
Method Description: Test C postemergence, plant response rating
Type: in vivo
Condition Parameters: Bassia scoparia, post-emergence, 125 g ai/ha, scale 0 to 100 (0 no effect, 100 complete control)
So I've got a bunch of compounds here, and I need their pest or weed control at 125 g/ha values.
Your reply should be a number followed by the unit it is expressed in.

Task: Quick check: pest or weed control at 125 g/ha on kochia (Kochia scoparia), item O=C(OCCC(F)(F)F)c1c(Br)cccc1Oc1ncc(Cl)cn1 ?
Result: 95%

Task: Identify the measured pest or weed control at 125 g/ha of C=CCOC(=O)c1c(Br)cccc1Oc1ncc(Cl)cn1 for kochia (Kochia scoparia).
Result: 50%

Task: Notebook entry, kochia (Kochia scoparia) assay: pest or weed control at 125 g/ha of O=C(OCCCC(F)(F)F)c1c(Br)cccc1Oc1ncc(Cl)cn1 = ?
Result: 100%

Task: Form field: pest or weed control at 125 g/ha recorded for CC(CC(F)(F)F)OC(=O)c1c(Br)cccc1Oc1ncc(Cl)cn1 (stereo not shown) with kochia (Kochia scoparia) (enter value)
Result: 90%
